Measurement record for cMET enzyme (amino acids 1023-1360) (Homo sapiens); quantity recorded: IC50.

# count of solved cases: 3
Would you kindly share the measured IC50 for O=C(Nc1cn2cc(Cn3nnc4ncccc43)ccc2n1)C(F)(F)F [Compound 2] ?
> 100 nM

// query: O=C(Nc1cn2nc(C(F)(F)c3nnc4ccc(-c5cc(F)cc(F)c5)cn34)ccc2n1)C1CC1 [Compound 81]
< 30 nM

// query: Cc1c(F)ccc2nnc(Sc3ccc4nc(NC(=O)C5CC5)cn4n3)n12 [Compound 113]
250 to 630 nM

Proceeding to the next compound to report its IC50.
Would you kindly share the measured IC50 for N#Cc1ccc2nnc(Sc3ccc4nc(NC(=O)C5CC5)cn4n3)n2c1 [Compound 6] ?
> 100 nM

----------
Examples of compounds with documented EC50 follow.
Tested on: MKN45
Assay: Inhibition of cell viability (MTS), MKN45
Format: cell-based
Settings: Homo sapiens, MKN-45, 96 h, MKN45 cells, 96 hours incubation
Experimental: Cells were maintained at 37° C. in a humidified atmosphere containing 5%-8% CO2 following the instructions of the supplier (American Type Culture Collection (Rockville, Md.)). Inhibition of cell viability was determined for a panel of tumor cell lines (MKN45, EBC1 and A549), using the soluble tetrazolium salt, MTS (Promega, Madison, Wis.). […] EC50 values may be calculated by non-linear curve fitting of the compound concentrations and fluorescence intensities to the standard EC50 equation.

# count of solved cases: 6
Would you kindly share the measured EC50 for COc1cncc(-c2ccc3nnn(Cc4ccc5nc(NC(=O)C6CC6)cn5n4)c3c2)c1 [Compound 19] ?
250 to 630 nM

// query: Cc1ccc2nnc(Sc3ccc4nc(NC(=O)C5CC5)cn4n3)n2c1 [Compound 42]
100 to 249 nM

// query: COc1ccc(-c2ccc3nnc(Sc4ccc5nc(NC(=O)C6CC6)cn5n4)n3c2)cn1 [Compound 102]
60 to 100 nM

// query: O=C(Nc1cn2nc(C(F)(F)c3nnc4ccc(-c5cccnc5)cn34)ccc2n1)C1CC1 [Compound 78]
< 30 nM

// query: O=C(Nc1cn2nc(Cn3nnc4ccc(-c5cnn(CCO)c5)cc43)ccc2n1)C1CC1 [Compound 24]
100 to 249 nM

// query: COCCn1cc(-c2ccc3nnc(Sc4ccc5nc(NC(=O)C6CC6)cn5n4)n3c2)cn1 [Compound 31]
< 100 nM

Proceeding to the next compound to report its EC50.
Would you kindly share the measured EC50 for N#Cc1cccc(-c2ccc3nnc(Sc4ccc5nc(NC(=O)C6CC6)cn5n4)n3c2)c1 [Compound 104] ?
< 30 nM

----------
Measurement record for cMET enzyme (amino acids 1023-1360) (Homo sapiens, UniProt P08581); quantity recorded: IC50.

Would you kindly share the measured IC50 for O=C(NCCO)Nc1cn2nc(Sc3nnc4ccc(-c5cccc(F)c5)cn34)ccc2n1 ?
< 30 nM

// query: COCCOCc1ccc2nnc(Sc3ccc4nc(NC(=O)C5CC5)cn4n3)n2c1
100 to 249 nM

----------
tested on: MKN45; experiment: Inhibition of cell viability (MTS), MKN45; format: cell-based; conditions: Homo sapiens, MKN-45, 96 h, MKN45 cells, 96 hours incubation
Examples of molecules with documented EC50 follow.

Form entry - test system: MKN45; read-out: EC50; molecule: O=C(Nc1cn2nc(Cn3nnc4ccc(-c5cnn(C[C@H](O)CO)c5)cc43)ccc2n1)C1CC1
> 630 nM

// query: CC(c1ccc2nc(NC(=O)C3CC3)cn2n1)c1nnc2ccccn12 (centres unmarked)
> 100 nM

Proceeding to the next molecule to report its EC50.
Form entry - test system: MKN45; read-out: EC50; molecule: O=C(Nc1cn2nc(Sc3nnc4ccc(-c5cnn(CCO)c5)cn34)ccc2n1)C1CC1
100 to 249 nM
